Assignment: determine reported pIC50 for the given molecules.
Target: full-length RORγt in Jurkat cells (Homo sapiens)
Construct: transcriptional activity of the full-length RORγt in Jurkat cells; host or cells: Jurkat cells (ATCC TIB-152)
Sequence (P51449 1-497 isoform P51449-2): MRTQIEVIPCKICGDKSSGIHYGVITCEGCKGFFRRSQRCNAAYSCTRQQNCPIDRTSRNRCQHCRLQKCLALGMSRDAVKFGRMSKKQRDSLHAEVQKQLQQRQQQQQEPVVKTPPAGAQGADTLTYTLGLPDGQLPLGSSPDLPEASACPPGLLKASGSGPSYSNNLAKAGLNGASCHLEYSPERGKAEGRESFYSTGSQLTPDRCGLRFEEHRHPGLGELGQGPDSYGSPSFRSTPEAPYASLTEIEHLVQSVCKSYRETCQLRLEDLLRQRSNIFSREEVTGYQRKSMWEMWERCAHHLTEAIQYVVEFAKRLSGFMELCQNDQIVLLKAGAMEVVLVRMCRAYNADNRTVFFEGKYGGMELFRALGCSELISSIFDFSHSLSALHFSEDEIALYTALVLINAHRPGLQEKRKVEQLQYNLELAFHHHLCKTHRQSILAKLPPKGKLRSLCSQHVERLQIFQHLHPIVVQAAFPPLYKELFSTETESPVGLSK
Test: RORγt 5×RORE Assay in Jurkat Cells (Assay 2)
Type: cell-based
Details: 5×RORE luciferase reporter, Table 20, read-out: Avg ROR γt/5x IC5
pIC50: −log10 of the molar value.

[
  {
    "molecule": "CCOC(=O)c1cnc(N2Cc3cc(C(=O)NCc4ccc(S(=O)(=O)CC)cc4)ccc3[C@@H](C(C)C)C2)nc1C(F)(F)F (single isomer, unassigned)",
    "pIC50": "6.00 to 7.00"
  }
]

Return reported pIC50 values for all items listed beneath this line.
1. CCS(=O)(=O)c1ccc(CNC(=O)c2ccc3c(c2)CN(c2ncc(F)cn2)C[C@H]3C(C)C)cc1 (single isomer, unassigned)
2. CCS(=O)(=O)c1ccc(CNC(=O)c2ccc3c(c2)CN(c2ncc(C#N)cn2)C[C@H]3C(C)C)cc1 (single isomer, unassigned)
3. CC[C@@H]1CN(c2ncc(C(F)(F)F)cc2C#N)Cc2cc(C(=O)N[C@@H](CO)c3ccc(S(=O)(=O)CC)cc3)ccc21 (single isomer, unassigned)

Result:
["< 6.00", "6.00 to 7.00", "> 7.00"]

* * *

target: recombinant RORγ Ligand Binding Domain (LBD) protein (Homo sapiens, UniProt P51449); construct: 6×His; GST; test: Radio-Ligand RORγ Binding Assay (Assay 1); details: radio-ligand competition, 25-hydroxy [26,27-3H]-cholesterol, RORγ LBD; read-out: Avg ROR Bind Ki
pKi: −log10 of the molar value.
Assignment: determine reported pKi for the given compounds.

[
  {
    "compound": "CC[C@@H]1CN(c2ccc(C(F)(F)F)cn2)Cc2cc(C(=O)NCc3ccc(S(=O)(=O)CC)cc3)ccc21 (single isomer, unassigned)",
    "tested target": "recombinant RORγ Ligand Binding Domain (LBD) protein (Homo sapiens, UniProt P51449)",
    "pKi": "> 7.00"
  },
  {
    "compound": "CC[C@@H]1CN(C2CCOCC2)Cc2cc(C(=O)N[C@@H](CO)c3ccc(S(=O)(=O)CC)cc3)ccc21 (single isomer, unassigned)",
    "tested target": "recombinant RORγ Ligand Binding Domain (LBD) protein (Homo sapiens, UniProt P51449)",
    "pKi": "6.00 to 7.00"
  },
  {
    "compound": "CC1c2ccc(C(=O)NCc3ccc(S(C)(=O)=O)cc3)cc2CCN1Cc1ccc(C#N)cc1 (racemic)",
    "tested target": "recombinant RORγ Ligand Binding Domain (LBD) protein (Homo sapiens, UniProt P51449)",
    "pKi": "< 6.00"
  },
  {
    "compound": "CCS(=O)(=O)c1ccc([C@H](CO)NC(=O)c2ccc3c(OCC4CCN(CC(F)(F)F)CC4)nc(C)cc3c2)cc1",
    "tested target": "recombinant RORγ Ligand Binding Domain (LBD) protein (Homo sapiens, UniProt P51449)",
    "pKi": "> 7.00"
  },
  {
    "compound": "CCS(=O)(=O)c1ccc([C@H](CO)NC(=O)c2sc3nc(C)nc(OC[C@H]4CC[C@H](C(F)(F)F)CC4)c3c2C)cc1",
    "tested target": "recombinant RORγ Ligand Binding Domain (LBD) protein (Homo sapiens, UniProt P51449)",
    "pKi": "> 7.00"
  }
]

Return reported pKi values for all items listed beneath this line.
1. CCS(=O)(=O)c1ccc(CNC(=O)c2ccc3c(c2)CCN(Cc2ccc(OC(F)F)nc2)[C@@H]3C(C)C)cc1 (single isomer, unassigned)
2. CCS(=O)(=O)c1ccc([C@H](CO)NC(=O)c2cnc3c(C4CC4)n(C[C@H]4CC[C@H](C(F)(F)F)CC4)nc3c2)cc1
3. CCS(=O)(=O)c1ccc(CNC(=O)c2cn(C)c3c(OCc4ccc(C(F)(F)F)cc4)nccc23)cc1

Result:
1: 6.00 to 7.00; 2: > 7.00; 3: > 7.00

Return reported pKi values for all items listed beneath this line.
1. CCS(=O)(=O)c1ccc(CNC(=O)c2ccc3c(c2)C(C)(C)CN(Cc2ccc(C#N)cc2)C3C(C)C)cc1 (single isomer, unassigned) [Hy2A-23.2]
2. CCc1c2ccc(C(=O)N[C@@H](CO)c3ccc(S(=O)(=O)CC)cc3)cc2nn1C[C@H]1CC[C@H](C(F)(F)F)CC1
3. CCC1CN(C2CCC(C(F)(F)F)CC2)Cc2cc(C(=O)NC(CO)c3ccc(S(=O)(=O)CC)cc3)ccc21 (single isomer, unassigned) [Hy7-35.1]
4. CCC1c2ccc(C(=O)NCc3ccc(S(=O)(=O)CC)cc3)cc2CCN1CC1CCC(C(F)(F)F)CC1 (single isomer, unassigned)
5. CCS(=O)(=O)c1ccc([C@H](CO)NC(=O)c2ccc3c(OC[C@H]4CC[C@H](C(F)(F)F)CC4)nc(OC)cc3c2)cc1
6. CCS(=O)(=O)c1ccc(CNC(=O)c2ccc3c(c2)CN(c2ncc(C#N)cn2)C[C@H]3C(C)C)cc1 (single isomer, unassigned)
7. CCS(=O)(=O)c1ccc(CNC(=O)c2ccc3c(OC4CCC(C(F)(F)F)CC4)nccc3c2)cc1 (single isomer, unassigned) [Hy1A-3.2]
8. CCOC(=O)c1cnc(N2CCc3cc(C(=O)NCc4ccc(S(=O)(=O)CC)cc4)ccc3[C@H]2C(C)C)nc1 (single isomer, unassigned)

Result:
1. > 7.00
2. > 7.00
3. > 7.00
4. > 7.00
5. > 7.00
6. > 7.00
7. > 7.00
8. 6.00 to 7.00

Return reported pKi values for all items listed beneath this line.
1. CCS(=O)(=O)c1ccc(CNC(=O)c2ccc3c(c2)CN(c2ncc(Cl)cn2)C[C@@H]3C(C)C)cc1 (single isomer, unassigned)
2. CCS(=O)(=O)c1ccc([C@H](CO)NC(=O)c2ccc3c(C4CC4)n(Cc4ccc(C(F)(F)F)cc4)nc3c2)nc1
3. CCS(=O)(=O)c1ccc([C@@H](CO)NC(=O)c2ccc3c(OC[C@H]4CC[C@H](C(F)(F)F)CC4)nc(C)cc3c2)cc1
4. CCS(=O)(=O)c1ccc([C@H](CO)NC(=O)c2ccc3c(OCC4CCOCC4)nc(C)cc3c2)cc1
5. CCS(=O)(=O)c1ccc(CNC(=O)c2ccc3c(c2)CCN(CC2CCN(C(=O)OC)CC2)[C@H]3C(C)C)cc1
6. CCOC(=O)c1cnc(N2Cc3cc(C(=O)NCc4ccc(S(=O)(=O)CC)cc4)ccc3[C@H](C(C)C)C2)nc1 (single isomer, unassigned)
7. CC[C@H]1CN(c2ncc(-c3ncco3)cn2)Cc2cc(C(=O)N[C@@H](CO)c3ccc(S(=O)(=O)CC)cc3)ccc21 (single isomer, unassigned)

Result:
> 7.00
> 7.00
> 7.00
> 7.00
6.00 to 7.00
> 7.00
> 7.00

Return reported pKi values for all items listed beneath this line.
1. CC[C@H]1CN(c2ncc(-c3ncco3)cn2)Cc2cc(C(=O)NCc3ccc(S(=O)(=O)CC)cc3)ccc21 (single isomer, unassigned)
2. CCS(=O)(=O)c1ccc([C@H](CO)NC(=O)c2ccc3c(OCc4ccc(C(F)(F)F)cc4)nccc3c2)cc1

Result:
["> 7.00", "> 7.00"]
